System: HCI-016 (organoid from a triple-negative breast cancer xenograft)
Assay: CTG-3D luminescence at 96 h relative to day-0 seeding control (ratio to day 0); higher = more growth / less cytotoxicity; PDxO 3D drug screen, 96 h, CTG-3D normalised to day-0 seeding control.
Details: 10 µM; days in culture: 172
The entries below are paired with their reported CTG-3D luminescence at 96 h.

- molecule: "CCN1CCN(Cc2ccc(Nc3ncc(F)c(-c4cc(F)c5nc(C)n(C(C)C)c5c4)n3)nc2)CC1 [abemaciclib]"
  CTG-3D luminescence at 96 h: 0.322
- molecule: "C=CC(=O)N1CCC[C@@H](n2nc(-c3ccc(Oc4ccccc4)cc3)c3c(N)ncnc32)C1 [ibrutinib]"
  CTG-3D luminescence at 96 h: 1.04
- molecule: "COc1cc2c(Oc3ccc4[nH]c(C)cc4c3F)ncnc2cc1OCCCN1CCCC1 [cediranib]"
  CTG-3D luminescence at 96 h: 0.397
- molecule: "Cc1nc(-c2cn3c(n2)-c2ccc(-c4cnn(C(C)(C)C(N)=O)c4)cc2OCC3)n(C(C)C)n1 [taselisib]"
  CTG-3D luminescence at 96 h: 0.704
- molecule: "CNC(=O)c1cccc(-c2ccc3c(N4CCOC[C@@H]4C)nc(N4CCOC[C@@H]4C)nc3n2)c1 [vistusertib]"
  CTG-3D luminescence at 96 h: 0.422
- molecule: "CCc1c2c(nc3ccc(O)cc13)-c1cc3c(c(=O)n1C2)COC(=O)[C@]3(O)CC [SN-38]"
  CTG-3D luminescence at 96 h: 0.021

###

Test system: HCI-024 (organoid from a breast cancer xenograft)
Assay: CTG-3D luminescence at 96 h relative to day-0 seeding control (ratio to day 0); higher = more growth / less cytotoxicity; PDxO 3D drug screen, 96 h, CTG-3D normalised to day-0 seeding control.
Settings: 0.005 µM; days in culture: 122

- molecule: "C/C=C1\\NC(=O)[C@H]2CSSCC/C=C/[C@H](CC(=O)N[C@H](C(C)C)C(=O)N2)OC(=O)[C@H](C(C)C)NC1=O [romidepsin]"
  CTG-3D luminescence at 96 h: 0.619
- molecule: "Cc1nc(-c2cn3c(n2)-c2ccc(-c4cnn(C(C)(C)C(N)=O)c4)cc2OCC3)n(C(C)C)n1 [taselisib]"
  CTG-3D luminescence at 96 h: 1.79
- molecule: "O=C(O)C1(C(=O)O)CCC1.[NH2-].[NH2-].[Pt+2] [carboplatin]"
  CTG-3D luminescence at 96 h: 1.97

###

System: HCI-005.E2 (organoid from a breast cancer xenograft with a HER2-positive history)
Assay: CTG-3D luminescence at 96 h relative to day-0 seeding control (ratio to day 0); higher = more growth / less cytotoxicity; PDxO 3D drug screen, 96 h, CTG-3D normalised to day-0 seeding control.
Settings: 0.1 µM

- molecule: "O=C(c1ccc(F)c(F)c1Nc1ccc(I)cc1F)N1CC(O)([C@@H]2CCCCN2)C1 [cobimetinib]"
  targetDesc: "HCI-005.E2"
  CTG-3D luminescence at 96 h: 1.05
- molecule: "COc1cc2c(Oc3ccc4[nH]c(C)cc4c3F)ncnc2cc1OCCCN1CCCC1 [cediranib]"
  targetDesc: "HCI-005.E2"
  CTG-3D luminescence at 96 h: 1.68
- molecule: "CC(=O)O[C@H]1C(=O)[C@@]2(C)[C@H]([C@H](OC(=O)c3ccccc3)[C@]3(O)C[C@H](OC(=O)[C@H](O)[C@@H](NC(=O)c4ccccc4)c4ccccc4)C(C)=C1C3(C)C)[C@]1(OC(C)=O)CO[C@@H]1C[C@@H]2O [paclitaxel]"
  targetDesc: "HCI-005.E2"
  CTG-3D luminescence at 96 h: 1.34
- molecule: "C[C@@H]1COCCN1c1cc(C2([S@](C)(=N)=O)CC2)nc(-c2cc[nH]c3nccc2-3)n1 [ceralasertib]"
  targetDesc: "HCI-005.E2"
  CTG-3D luminescence at 96 h: 1.9
- molecule: "NC(=O)c1cccc2cn(-c3ccc([C@@H]4CCCNC4)cc3)nc12 [niraparib]"
  targetDesc: "HCI-005.E2"
  CTG-3D luminescence at 96 h: 1.62
- molecule: "CCN1CCN(Cc2ccc(Nc3ncc(F)c(-c4cc(F)c5nc(C)n(C(C)C)c5c4)n3)nc2)CC1 [abemaciclib]"
  targetDesc: "HCI-005.E2"
  CTG-3D luminescence at 96 h: 1.96
- molecule: "Cc1cc(Nc2ncc(Cl)c(Nc3ccccc3S(=O)(=O)C(C)C)n2)c(OC(C)C)cc1C1CCNCC1 [ceritinib]"
  targetDesc: "HCI-005.E2"
  CTG-3D luminescence at 96 h: 1.7
- molecule: "O=C(/C=C/c1cccnc1)NCCCCC1CCN(C(=O)c2ccccc2)CC1 [FK866]"
  targetDesc: "HCI-005.E2"
  CTG-3D luminescence at 96 h: 0.142

###

System: HCI-008 (organoid from a HER2-enriched breast cancer xenograft)
Assay: CTG-3D luminescence at 96 h relative to day-0 seeding control (ratio to day 0); higher = more growth / less cytotoxicity; PDxO 3D drug screen, 96 h, CTG-3D normalised to day-0 seeding control.
Conditions: 12.5 pM; days in culture: 228

- smilesStr: "CC(=O)O[C@H]1C(=O)[C@@]2(C)[C@H]([C@H](OC(=O)c3ccccc3)[C@]3(O)C[C@H](OC(=O)[C@H](O)[C@@H](NC(=O)c4ccccc4)c4ccccc4)C(C)=C1C3(C)C)[C@]1(OC(C)=O)CO[C@@H]1C[C@@H]2O"
  CTG-3D luminescence at 96 h: 1.67
- smilesStr: "O=C(O)C1(C(=O)O)CCC1.[NH2-].[NH2-].[Pt+2]"
  CTG-3D luminescence at 96 h: 1.58
- smilesStr: "CS(=O)(=O)c1ccc(C(=O)Nc2ccc(Cl)c(-c3ccccn3)c2)c(Cl)c1"
  CTG-3D luminescence at 96 h: 1.56
- smilesStr: "C=CCn1c(=O)c2cnc(Nc3ccc(N4CCN(C)CC4)cc3)nc2n1-c1cccc(C(C)(C)O)n1"
  CTG-3D luminescence at 96 h: 2.01
- smilesStr: "COc1cccc2c1C(=O)c1c(O)c3c(c(O)c1C2=O)C[C@@](O)(C(=O)CO)C[C@@H]3O[C@H]1C[C@H](N)[C@H](O)[C@H](C)O1"
  CTG-3D luminescence at 96 h: 1.33
- smilesStr: "C=CC(=O)N1CCC[C@@H](n2nc(-c3ccc(Oc4ccccc4)cc3)c3c(N)ncnc32)C1"
  CTG-3D luminescence at 96 h: 1.59

###

The entries below are paired with their reported CTG-3D luminescence at 96 h.
Test system: HCI-016
Assay: CTG-3D luminescence at 96 h relative to day-0 seeding control (ratio to day 0); higher = more growth / less cytotoxicity; PDxO 3D drug screen (set 2), 96 h, CTG-3D normalised to day-0 seeding control.
Settings: 1 µM; days in culture: 341

- molecule: "CCOc1ccn(-c2ccc(F)cc2)c(=O)c1C(=O)Nc1ccc(Oc2ccnc(N)c2Cl)c(F)c1"
  CTG-3D luminescence at 96 h: 1.97
- molecule: "CO[C@H]1C[C@@H]2CC[C@@H](C)[C@@](O)(O2)C(=O)C(=O)N2CCCC[C@H]2C(=O)O[C@H]([C@H](C)C[C@@H]2CC[C@@H](O)[C@H](OC)C2)CC(=O)[C@H](C)/C=C(\\C)[C@@H](O)[C@@H](OC)C(=O)[C@H](C)C[C@H](C)/C=C/C=C/C=C/1C"
  CTG-3D luminescence at 96 h: 1.34
- molecule: "COc1cccc2c1C(=O)c1c(O)c3c(c(O)c1C2=O)C[C@@](O)(C(=O)CO)C[C@@H]3O[C@H]1C[C@H](N)[C@@H](O)[C@H](C)O1 [epirubicin]"
  CTG-3D luminescence at 96 h: 0.0279
- molecule: "CS(=O)(=O)CCNCc1ccc(-c2ccc3ncnc(Nc4ccc(OCc5cccc(F)c5)c(Cl)c4)c3c2)o1"
  CTG-3D luminescence at 96 h: 1.6

###

Test system: HCI-010 (organoid from a breast cancer xenograft)
Experiment: CTG-3D luminescence at 96 h relative to day-0 seeding control (ratio to day 0); higher = more growth / less cytotoxicity; PDxO 3D drug screen, 96 h, CTG-3D normalised to day-0 seeding control.
Settings: 625 fM; days in culture: 103
The entries below are paired with their reported CTG-3D luminescence at 96 h.

- smilesStr: "COc1cccc2c1C(=O)c1c(O)c3c(c(O)c1C2=O)C[C@@](O)(C(=O)CO)C[C@@H]3O[C@H]1C[C@H](N)[C@H](O)[C@H](C)O1"
  targetDesc: "HCI-010"
  CTG-3D luminescence at 96 h: 3.28
- smilesStr: "CC1(C)CCC(c2ccc(Cl)cc2)=C(CN2CCN(c3ccc(C(=O)NS(=O)(=O)c4ccc(N[C@H](CCN5CCOCC5)CSc5ccccc5)c(S(=O)(=O)C(F)(F)F)c4)cc3)CC2)C1"
  targetDesc: "HCI-010"
  CTG-3D luminescence at 96 h: 2.7
- smilesStr: "COc1cc2c(Oc3ccc4[nH]c(C)cc4c3F)ncnc2cc1OCCCN1CCCC1"
  targetDesc: "HCI-010"
  CTG-3D luminescence at 96 h: 3.19
- smilesStr: "C=CC(=O)N1CCC[C@@H](n2nc(-c3ccc(Oc4ccccc4)cc3)c3c(N)ncnc32)C1"
  targetDesc: "HCI-010"
  CTG-3D luminescence at 96 h: 3.23
- smilesStr: "CC[C@H](NC(=O)[C@H](C)NC)C(=O)N1C[C@@H](O)C[C@H]1Cc1c(-c2[nH]c3cc(F)ccc3c2C[C@@H]2C[C@H](O)CN2C(=O)[C@H](CC)NC(=O)[C@H](C)NC)[nH]c2cc(F)ccc12"
  targetDesc: "HCI-010"
  CTG-3D luminescence at 96 h: 2.9
- smilesStr: "CS(=O)(=O)c1ccc(C(=O)Nc2ccc(Cl)c(-c3ccccn3)c2)c(Cl)c1"
  targetDesc: "HCI-010"
  CTG-3D luminescence at 96 h: 2.8
- smilesStr: "C/C=C1\\NC(=O)[C@H]2CSSCC/C=C/[C@H](CC(=O)N[C@H](C(C)C)C(=O)N2)OC(=O)[C@H](C(C)C)NC1=O"
  targetDesc: "HCI-010"
  CTG-3D luminescence at 96 h: 2.77
- smilesStr: "NC(=O)Nc1cc(-c2cccc(F)c2)sc1C(=O)N[C@H]1CCCNC1"
  targetDesc: "HCI-010"
  CTG-3D luminescence at 96 h: 3.22
